# experimentalDetails: Cmax in Sprague-Dawley rat at 50 mg/kg, po by LC-MS analysis
# Type: ADME, organism-based
# Set-up: dose 50 mg/kg, route oral
# conditionInfo: in vivo
attributeMeasured: Cmax (ng/mL)
One number for each entry, in ng/mL.

Qu. Determine its reported Cmax: N#Cc1ccc(-c2ccc3c(c2)OC[C@H]2[C@H](CO)OC(=O)N32)cn1
Ans. 3020

====

# Test system: Staphylococcus epidermidis
# experimentalDetails: Antibacterial activity against methicillin-sensitive Staphylococcus epidermidis after 16 hrs by NCCLS agar dilution method
# Type: functional
Mark yes (1) for MIC under 1 µg/mL, no (0) if at or over.

> print(dat)
                                   compound  labelclass
1  CC(=O)N1CCN(c2ccc(-c3ccc4c(c3)OC[C@H]3[C@H](CO)OC(=O)N43)cn2)C1=O      no (0)
2  CCN1CCN(c2ccc(-c3ccc4c(c3)OC[C@H]3[C@H](CO)OC(=O)N43)cn2)CC1      no (0)

Qu. Does the reported MIC of the following compound sit strictly below 1 µg/mL? O=C1O[C@H](CO)CN1c1ccc(-c2ccc3c(c2)OC[C@H]2[C@H](CO)OC(=O)N32)cn1
Ans. yes (1)

Qu. Does the reported MIC of the following compound sit strictly below 1 µg/mL? O=C1OC(CO)CN1c1ccc(-c2ccc3c(c2)OC[C@H]2[C@H](CO)OC(=O)N32)cn1 (stereo partly drawn)
Ans. yes (1)

Qu. Does the reported MIC of the following compound sit strictly below 1 µg/mL? CN1C[C@H](c2ccc(-c3ccc4c(c3)OC[C@H]3[C@H](CO)OC(=O)N43)cn2)OC1=O
Ans. yes (1)

Qu. Does the reported MIC of the following compound sit strictly below 1 µg/mL? CC(C)N1CCN(c2ccc(-c3ccc4c(c3)OC[C@H]3[C@H](CO)OC(=O)N43)cn2)C(=O)C1
Ans. no (0)
